Taken from the array DNA melting data of Ke et al. (doi:10.1101/2024.01.08.574731).

assay: melting temperature; fluorescence melt of hairpins on a sequencing array, two-state fit, raised by 9.35 °C to match UV melts; settings: sodium 0.088 M
ASSAY_ENDPOINT: Tm

Examples from the recorded data:
> print(dat)
                        residue.sequence  reported.result
1  GCCATAACGAAAGTTGGC (((..(((....))))))          49.3 °C
2  GCTATCGGAAACGATAAC (.(((((....))))).)          34.5 °C
3  GGCTCCGAAAGGAGCGCC ((((((....)))..)))          68.6 °C
4      GATCGCCGTAGCGATC ((((((....))))))          69.2 °C
5          CTTTTGAAAAAAAG (((((....)))))          30.1 °C
6      GATCGTACAAACGATC ((((((....))))))          52.6 °C

Proceeding to the next sequence to report its Tm.
Request: Tell me the measured Tm of GATCAAGTGATTGATC ((((((....)))))) , please.
Result: 47.3 °C

----------
test: folding enthalpy; higher = less favourable; fluorescence melt of hairpins on a sequencing array, two-state fit; details: sodium 0.088 M
Recorded measurements of folding enthalpy, one per entry
// return numeric value only (unit: kcal/mol, not printed)

Examples from the recorded data:
> print(dat)
                         residue.sequence  unit.info  reported.result
 1          GTCAAGAAATTGAC (((((....)))))   kcal/mol            -21.6
 2  GTGGGAGGAAACTCCTAC ((.((((....)))).))   kcal/mol            -25.1
 3    GTTTGCGAAAGCAAAAC ((((((....))).)))   kcal/mol            -17.4
 4  GTCTTCGAAAGAAAAGAC ((((((....)))..)))   kcal/mol            -17.9
 5  CGCGCGGAAACGCCCGCG ((((((....)))..)))   kcal/mol            -29.7
 6  GTTTCGGGAAACTGAAAC (((((.(....).)))))   kcal/mol            -27.5
 7      GATCTTTGACAAGATC ((((((....))))))   kcal/mol            -25.1
 8      GATCTGGCCCCAGATC ((((((....))))))   kcal/mol            -49.3
 9  GACCTTCCGAAAGGAGTC (((..(((....))))))   kcal/mol            -11.8
10  GAGTACGAAAGTACCCTC ((((((....)))..)))   kcal/mol            -13.2

Request: Tell me the measured folding enthalpy of GAGTACGAAAGTAATCTC ((((((....)))..))) , please.
Result: -27.2

Request: Tell me the measured folding enthalpy of GGGGTTGCGAAAGCACCC (((..(((....)))))) , please.
Result: -19

Request: Tell me the measured folding enthalpy of GATCGAGGTCTCGATC ((((((....)))))) , please.
Result: -38.5

Request: Tell me the measured folding enthalpy of GATCGCCAGGGCGATC ((((((....)))))) , please.
Result: -31

----------
assay: melting temperature; fluorescence melt of hairpins on a sequencing array, two-state fit, raised by 9.35 °C to match UV melts; conditions: sodium 0.088 M
ASSAY_ENDPOINT: Tm (°C)
// return numeric value only (unit: °C, not printed)

Examples from the recorded data:
> print(dat)
                        residue.sequence  reported.result
1        GATCCAGATTGGATC ((((((...))))))             50.6
2  GTATAGGGAAACCTATAC (((((((....)))))))             50.1
3  GGTCCAGGAAACTGGATC (.(((((....))))).)             49.7
4          CACTGGAAACAGTG (((((....)))))             50.7
5      GATCTTGCATAAGATC ((((((....))))))             50.9

Request: Tell me the measured Tm of GATCATATTTATGATC ((((((....)))))) , please.
Result: 50.3

----------
experiment: folding enthalpy; higher = less favourable; fluorescence melt of hairpins on a sequencing array, two-state fit; conditions: sodium 0.088 M
ASSAY_ENDPOINT: folding enthalpy
# include the unit after the value

> print(dat)
                        residue.sequence  reported.result
1  GCAAATGGAAACATCTGC (((.(((....))).)))   -20.3 kcal/mol
2  GTCTGCCGAAAGGCTGAC (((.(((....))).)))   -30.5 kcal/mol
3          TTATGGAAACATAA (((((....)))))   -8.55 kcal/mol
4  GAGAAACGAAAGTTGCTC (((.(((....))).)))     -28 kcal/mol
5  GCAGGCGCGAAAGCGTGC (((..(((....))))))   -13.3 kcal/mol
6  GCCTTGGGAAACTAGGGC (((.(.(....).).)))   -30.1 kcal/mol

Request: Tell me the measured folding enthalpy of GCCCAAGCGAAAGCTGGC (((..(((....)))))) , please.
Result: -17.6 kcal/mol

Request: Tell me the measured folding enthalpy of GATCCTATGTAGGATC ((((((....)))))) , please.
Result: -34.9 kcal/mol

Request: Tell me the measured folding enthalpy of GCGGGCGAAAGCCTACGC ((((((....)))..))) , please.
Result: -18.8 kcal/mol

Request: Tell me the measured folding enthalpy of GCAAGCGAAAGCTGGTGC ((((((....)))..))) , please.
Result: -20.9 kcal/mol

Request: Tell me the measured folding enthalpy of GCGCTTTCGAAAGAACGC (((..(((....)))))) , please.
Result: -34.8 kcal/mol

----------
assay: folding enthalpy; higher = less favourable; fluorescence melt of hairpins on a sequencing array, two-state fit; conditions: sodium 0.088 M
Recorded measurements of folding enthalpy, one per entry

Examples from the recorded data:
> print(dat)
                        residue.sequence  reported.result
1  GGACGCGGAAACGCACCC ((..(((....)))..))   -10.1 kcal/mol
2  GACCCCGGAAACAGGGTC (((((.(....).)))))   -29.5 kcal/mol
3  GACTGACGAAAGTCGGTC (((.(((....))).)))   -37.2 kcal/mol

Request: Tell me the measured folding enthalpy of GTTTAAGGAAACTTAAAC (((((((....))))))) , please.
Result: -40.6 kcal/mol

Request: Tell me the measured folding enthalpy of GATCTCAAAGAGATC ((((((...)))))) , please.
Result: -37.6 kcal/mol

Request: Tell me the measured folding enthalpy of GCTCCTCCGAAAGGAAGC (((..(((....)))))) , please.
Result: -15.9 kcal/mol

----------
experiment: melting temperature; fluorescence melt of hairpins on a sequencing array, two-state fit, raised by 9.35 °C to match UV melts; conditions: sodium 0.088 M
Recorded measurements of Tm, one per entry
// return numeric value only (unit: °C, not printed)

> print(dat)
                        residue.sequence  reported.result
1  GGAATCCCGAAAGGGTCC (((..(((....))))))               33
2  GCACGTGGAAACACATGC (((.(((....))).)))             45.1
3          CTGTGGAAACACAG (((((....)))))             52.1
4  GGTCCCGAAAGGGGGACC ((((((....)))..)))             59.2
5  GGTAGCGGAAACGCCACC (((.(((....))).)))             48.3

Request: Tell me the measured Tm of GCACGGCCGAAAGGCTGC (((..(((....)))))) , please.
Result: 45.1

Request: Tell me the measured Tm of GATTCCGAAAGGATCATC ((((((....)))..))) , please.
Result: 29.6

Request: Tell me the measured Tm of GTCAGAGGAAACTCCAAC ((..(((....)))..)) , please.
Result: 17.2

Request: Tell me the measured Tm of GCAACCGAAAGGTTATGC ((((((....)))..))) , please.
Result: 44.1

Request: Tell me the measured Tm of GTCCGAGCGAAAGCTGAC (((..(((....)))))) , please.
Result: 37.2

Request: Tell me the measured Tm of GCACAGGAAACTGTGC ((((((....)))))) , please.
Result: 67

Request: Tell me the measured Tm of GGTGTCGGAAACGACGCC ((.((((....)))).)) , please.
Result: 64.5

Request: Tell me the measured Tm of GATCGGTTTGCCGATC ((((((....)))))) , please.
Result: 61.6

Request: Tell me the measured Tm of GGAAGACGAAAGTCCTCC (((.(((....))).))) , please.
Result: 43

Request: Tell me the measured Tm of GCGTACGAAAGTAAGCGC ((((((....)))..))) , please.
Result: 56.8

Request: Tell me the measured Tm of GATCAAGGTTTTGATC ((((((....)))))) , please.
Result: 45.1

Request: Tell me the measured Tm of GAGCTACGAAAGTATCTC (((.(((....))).))) , please.
Result: 36.9

Request: Tell me the measured Tm of GATCCCCCCGGGATC ((((((...)))))) , please.
Result: 65.8

Request: Tell me the measured Tm of GGAATCGAAAGATGATCC ((((((....)))..))) , please.
Result: 29

Request: Tell me the measured Tm of GCTTTTCGAAAGAATAGC (((.(((....))).))) , please.
Result: 44

Request: Tell me the measured Tm of GTGGACGAAAGTCCCCAC ((((((....)))..))) , please.
Result: 37.2

Request: Tell me the measured Tm of GAGGACGAAAGTCATCTC ((((((....)))..))) , please.
Result: 51.8

Request: Tell me the measured Tm of GGTCCAGCGAAAGCTACC (((..(((....)))))) , please.
Result: 30.1

Request: Tell me the measured Tm of GTGTGTGGAAACATGCAC (((..((....))..))) , please.
Result: 43.3

Request: Tell me the measured Tm of GCTCCTGAAAAGGAGC ((((((....)))))) , please.
Result: 68.5

Request: Tell me the measured Tm of GTCGCACGAAAGTGGAC (((.(((....)))))) , please.
Result: 49.9

Request: Tell me the measured Tm of GATCACTGCCGTGATC ((((((....)))))) , please.
Result: 55.9

Request: Tell me the measured Tm of GATCGACTCCTCGATC ((((((....)))))) , please.
Result: 51.6

Request: Tell me the measured Tm of GTGGAAGGAAACTTCTAC ((.((((....)))).)) , please.
Result: 39.3

Request: Tell me the measured Tm of GATCGTGTTGACGATC ((((((....)))))) , please.
Result: 57.4

Request: Tell me the measured Tm of GAGCGGACGAAAGTCCTC (((..(((....)))))) , please.
Result: 29.9

Request: Tell me the measured Tm of GATCGTTATCACGATC ((((((....)))))) , please.
Result: 52.7

Request: Tell me the measured Tm of GATCGCTGACGCGATC ((((((....)))))) , please.
Result: 66.7

Request: Tell me the measured Tm of GTCCATGGAAACATGAAC ((.((((....)))).)) , please.
Result: 36.4

Request: Tell me the measured Tm of GCCTACGAAAGTACAGGC ((((((....)))..))) , please.
Result: 47.7

Request: Tell me the measured Tm of GATCTGCAGTCAGATC ((((((....)))))) , please.
Result: 49.2
